Catalogue of compounds with associated BAF3-FGFR 1 (MIN IL3) 384 well pIC50
target: Ba/F3-FGFR1-transfected cells (Homo sapiens, UniProt P11362); test: Ba/F3-FGFR1 (minus IL3) cellular proliferation assay, Alamar Blue; type: cell-based; conditions: minus IL3, 384 well
Sequence (P11362 whole entry, change not shown): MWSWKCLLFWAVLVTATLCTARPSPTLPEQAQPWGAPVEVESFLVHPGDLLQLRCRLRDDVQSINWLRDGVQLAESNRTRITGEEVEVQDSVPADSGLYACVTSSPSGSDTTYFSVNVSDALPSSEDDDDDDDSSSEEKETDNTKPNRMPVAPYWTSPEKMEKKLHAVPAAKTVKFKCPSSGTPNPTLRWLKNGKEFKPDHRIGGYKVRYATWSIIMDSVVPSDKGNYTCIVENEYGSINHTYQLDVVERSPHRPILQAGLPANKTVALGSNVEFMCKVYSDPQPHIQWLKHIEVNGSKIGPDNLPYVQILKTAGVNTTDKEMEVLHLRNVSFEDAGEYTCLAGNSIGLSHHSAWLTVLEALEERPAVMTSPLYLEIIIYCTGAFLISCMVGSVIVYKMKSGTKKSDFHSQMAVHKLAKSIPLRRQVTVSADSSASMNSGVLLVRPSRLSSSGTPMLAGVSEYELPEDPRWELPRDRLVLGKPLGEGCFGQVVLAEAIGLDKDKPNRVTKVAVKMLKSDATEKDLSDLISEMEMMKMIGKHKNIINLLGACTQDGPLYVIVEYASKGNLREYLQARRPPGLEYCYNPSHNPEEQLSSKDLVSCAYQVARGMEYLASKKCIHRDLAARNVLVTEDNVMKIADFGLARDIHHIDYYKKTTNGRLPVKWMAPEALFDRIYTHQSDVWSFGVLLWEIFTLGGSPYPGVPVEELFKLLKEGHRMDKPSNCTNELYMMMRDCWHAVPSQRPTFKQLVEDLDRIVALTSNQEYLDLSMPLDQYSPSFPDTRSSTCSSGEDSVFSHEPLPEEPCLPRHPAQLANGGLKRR
Response field accepts a number only; no unit should be typed.

Solved cases below.
compound: COc1cc(OC)cc(N(CCCO)c2ccc3ncc(-c4ccc(N5CCNCC5)nc4)nc3c2)c1 [Compound 48]
value_observed: 6.92
//
compound: CNC(=O)c1cc(-c2cnc3ccc(N(CCNC(C)C)c4cc(OC)cc(OC)c4)cc3n2)ccn1 [Compound 14]
value_observed: 6.61
//
compound: COc1cc(OC)cc(N(CCCNC(C)C)c2ccc3ncc(-c4ccnc(N)c4)nc3c2)c1 [Compound 143]
value_observed: 6.56
//
compound: COc1cc(OC)cc(N(CC2CC2)c2ccc3ncc(-n4cnc(CO)c4)nc3c2)c1 [Compound 105]
value_observed: 5.32
//
compound: COc1cc(OC)cc(N(CCNC(C)C)c2ccc3ncc(NCC4CCNCC4)nc3c2)c1 [Compound 161]
value_observed: 5.42

// next item, BAF3-FGFR 1 (MIN IL3) 384 well pIC50 requested
The reported value for COc1cc(OC)cc(N(CCO)c2ccc3ncc(-c4ccnc(C(=O)NCCCCCO)c4)nc3c2)c1 [Compound 139] in terms of BAF3-FGFR 1 (MIN IL3) 384 well pIC50 is 5.35

* * *

biological target: Ba/F3-Flt3-transfected cells (Homo sapiens, UniProt P36888, cells depend on it, form not given); assay: Ba/F3-Flt3 (minus IL3) cellular proliferation assay, Alamar Blue; type: cell-based; conditions: minus IL3
Catalogue of compounds with associated BAF3-FLT3 (MIN IL3) 96 well pIC50

smiles_record: COc1cc(OC)cc(N(CC2CC2)c2ccc3ncc(-c4ccn[nH]4)nc3c2)c1
value_observed: <5

smiles_record: COc1cc(OC)cc(N(CC2CC2)c2ccc3ncc(C(=O)Nc4cncn4C)nc3c2)c1
value_observed: <5

smiles_record: COc1cc(OC)cc(N(CC2CC2)c2ccc3ncc(-n4cccn4)nc3c2)c1
value_observed: <5

smiles_record: COc1cc(OC)cc(N(CC2CC2)c2ccc3ncc(C#Cc4ccncc4)nc3c2)c1
value_observed: 5.31

smiles_record: COc1cc(OC)cc(N(CC2CC2)c2ccc3ncc(-n4cncn4)nc3c2)c1
value_observed: <5

The reported value for COc1cc(OC)cc(N(CC2CC2)c2ccc3ncc(-c4cc[nH]c4)nc3c2)c1 in terms of BAF3-FLT3 (MIN IL3) 96 well pIC50 is <5

The reported value for COc1cc(OC)cc(N(CC2CC2)c2ccc3ncc(-c4nnn(C)n4)nc3c2)c1 in terms of BAF3-FLT3 (MIN IL3) 96 well pIC50 is <5

The reported value for COc1cc(OC)cc(N(CC2CC2)c2ccc3ncc(-c4cn(CCN5CCOCC5)nn4)nc3c2)c1 in terms of BAF3-FLT3 (MIN IL3) 96 well pIC50 is <5

The reported value for COc1cc(OC)cc(N(CC2CC2)c2ccc3ncc(Nc4cnn(C)c4)nc3c2)c1 in terms of BAF3-FLT3 (MIN IL3) 96 well pIC50 is 5.25

The reported value for COc1cc(OC)cc(N(CC2CC2)c2ccc3ncc(-c4nccs4)nc3c2)c1 in terms of BAF3-FLT3 (MIN IL3) 96 well pIC50 is <5

* * *

Catalogue of compounds with associated BAF3-FGFR 1 (MIN IL3) 384 well pIC50
molecular target: Ba/F3-FGFR1-transfected cells (Homo sapiens); assay: Ba/F3-FGFR1 (minus IL3) cellular proliferation assay, Alamar Blue; type: cell-based; conditions: minus IL3, 384 well
Response field accepts a number only; no unit should be typed.

compound: CNC(=O)c1cc(-c2cnc3ccc(N(CCNCC(F)(F)F)c4cc(OC)cc(OC)c4)cc3n2)ccn1
target_system: Ba/F3-FGFR1-transfected cells (Homo sapiens)
BAF3-FGFR 1 (MIN IL3) 384 well pIC50: 5.44
//
compound: COc1cc(OC)cc(N(CCNC(C)C)c2ccc3ncc(-c4ccncc4)nc3c2)c1
target_system: Ba/F3-FGFR1-transfected cells (Homo sapiens)
BAF3-FGFR 1 (MIN IL3) 384 well pIC50: 7.27
//
compound: COc1cc(OC)cc(N(CCO)c2ccc3ncc(-c4ccnc(C(=O)NCCCN)c4)nc3c2)c1
target_system: Ba/F3-FGFR1-transfected cells (Homo sapiens)
BAF3-FGFR 1 (MIN IL3) 384 well pIC50: 5.22
//
compound: COC(=O)C1CCCN1c1cnc2ccc(N(CCO)c3cc(OC)cc(OC)c3)cc2n1 (centres unmarked)
target_system: Ba/F3-FGFR1-transfected cells (Homo sapiens)
BAF3-FGFR 1 (MIN IL3) 384 well pIC50: 6.6
//
compound: COc1cc(OC)cc(N(CCCO)c2ccc3ncc(-c4ccnc(Cl)c4)nc3c2)c1
target_system: Ba/F3-FGFR1-transfected cells (Homo sapiens)
BAF3-FGFR 1 (MIN IL3) 384 well pIC50: 5.63

The reported value for CNC(=O)c1cc(-c2cnc3ccc(N(CCN4CCCC4CO)c4cc(OC)cc(OC)c4)cc3n2)ccn1 (centres unmarked) in terms of BAF3-FGFR 1 (MIN IL3) 384 well pIC50 is 6.63

* * *

target: Ba/F3-FGFR3-transfected cells (Homo sapiens, UniProt P22607); assay: Ba/F3-FGFR3 (minus IL3) cellular proliferation assay, Alamar Blue; format: cell-based; conditions: minus IL3, 384 well
Sequence (P22607 whole entry, change not shown): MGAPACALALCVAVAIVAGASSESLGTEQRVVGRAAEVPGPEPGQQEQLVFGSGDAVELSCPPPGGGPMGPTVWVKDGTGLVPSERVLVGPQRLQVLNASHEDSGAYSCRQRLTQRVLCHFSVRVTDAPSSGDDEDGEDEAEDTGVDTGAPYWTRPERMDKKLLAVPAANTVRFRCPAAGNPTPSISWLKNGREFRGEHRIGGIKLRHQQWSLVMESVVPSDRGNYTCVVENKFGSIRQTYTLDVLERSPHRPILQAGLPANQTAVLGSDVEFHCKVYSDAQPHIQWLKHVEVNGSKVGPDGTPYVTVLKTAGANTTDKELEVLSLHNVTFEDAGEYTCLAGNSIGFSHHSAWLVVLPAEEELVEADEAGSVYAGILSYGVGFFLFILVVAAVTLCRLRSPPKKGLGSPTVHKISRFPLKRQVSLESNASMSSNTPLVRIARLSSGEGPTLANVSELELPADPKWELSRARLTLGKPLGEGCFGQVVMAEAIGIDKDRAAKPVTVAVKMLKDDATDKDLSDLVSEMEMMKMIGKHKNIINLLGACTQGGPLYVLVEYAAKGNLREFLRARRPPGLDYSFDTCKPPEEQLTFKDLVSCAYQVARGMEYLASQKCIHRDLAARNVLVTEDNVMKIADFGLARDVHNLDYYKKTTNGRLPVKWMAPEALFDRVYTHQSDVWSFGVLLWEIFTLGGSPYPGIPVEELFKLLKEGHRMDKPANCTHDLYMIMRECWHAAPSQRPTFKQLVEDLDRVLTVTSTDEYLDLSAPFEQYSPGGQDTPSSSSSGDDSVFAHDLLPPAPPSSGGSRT
metric: BAF3-FGFR 3 (MIN IL3) 384 well pIC50

Solved cases below.
smiles_record: CNC(=O)c1cc(-c2cnc3ccc(N(CCNCC(F)(F)F)c4cc(OC)cc(OC)c4)cc3n2)ccn1
value_observed: ~5.63
//
smiles_record: COc1cc(OC)cc(N(CCN)c2ccc3ncc(-c4ccn(C)c4)nc3c2)c1
value_observed: ~6.64
//
smiles_record: COc1cc(OC)cc(N(CCO)c2ccc3ncc(-c4ccccc4)nc3c2)c1
value_observed: ~6.09
//
smiles_record: COCCN(c1cc(OC)cc(OC)c1)c1ccc2ncc(-c3ccn(C)c3)nc2c1
value_observed: ~6.27
//
smiles_record: COc1cc(OC)cc(N(CCNC(C)C)c2ccc3ncc(-c4ccc(N5CCOCC5)nc4)nc3c2)c1
value_observed: ~7.15

// next item, BAF3-FGFR 3 (MIN IL3) 384 well pIC50 requested
The reported value for COc1cc(OC)cc(N(CCO)c2ccc3ncc(-c4ccc(N)nc4)nc3c2)c1 in terms of BAF3-FGFR 3 (MIN IL3) 384 well pIC50 is ~6.54

* * *

target: Ba/F3-FGFR3-transfected cells (Homo sapiens, UniProt P22607); assay: Ba/F3-FGFR3 (minus IL3) cellular proliferation assay, Alamar Blue; assay type: cell-based; details: minus IL3, 384 well
metric: BAF3-FGFR 3 (MIN IL3) 384 well pIC50

Solved cases below.
smiles_record: COc1cc(OC)cc(N(CC2CC2)c2ccc3ncc(-n4ccnc4C)nc3c2)c1
target_system: Ba/F3-FGFR3-transfected cells (Homo sapiens, UniProt P22607)
BAF3-FGFR 3 (MIN IL3) 384 well pIC50: <5

smiles_record: COc1cc(OC)cc(N(CCCNCC(F)(F)F)c2ccc3ncc(-c4ccnc(Cl)c4)nc3c2)c1
target_system: Ba/F3-FGFR3-transfected cells (Homo sapiens, UniProt P22607)
BAF3-FGFR 3 (MIN IL3) 384 well pIC50: <5

smiles_record: COc1cc(OC)cc(N(CC2CC2)c2ccc3ncc(N4CCOCC4)nc3c2)c1
target_system: Ba/F3-FGFR3-transfected cells (Homo sapiens, UniProt P22607)
BAF3-FGFR 3 (MIN IL3) 384 well pIC50: <5

The reported value for COc1cc(OC)cc(N(CCCNC(C)C)c2ccc3ncc(-c4ccnc(NC(=O)OC(C)(C)C)c4)nc3c2)c1 in terms of BAF3-FGFR 3 (MIN IL3) 384 well pIC50 is ~5.83

The reported value for COc1cc(OC)cc(N(CC2CC2)c2ccc3ncc(-c4ccc5c(c4)OCO5)nc3c2)c1 in terms of BAF3-FGFR 3 (MIN IL3) 384 well pIC50 is <5.4

The reported value for COc1cc(OC)cc(N(CC2CC2)c2ccc3ncc(-c4ccnc(N5CCN(C)CC5)c4)nc3c2)c1 in terms of BAF3-FGFR 3 (MIN IL3) 384 well pIC50 is ~5.26

* * *

molecular target: FGFR1 (h) (Homo sapiens, UniProt P11362); experiment: FGFR1 (enzymatic assay), TR-FRET; type: biochemical; conditions: read-out: FGFR 1 pIC50 (converted)
Sequence (P11362 22-822): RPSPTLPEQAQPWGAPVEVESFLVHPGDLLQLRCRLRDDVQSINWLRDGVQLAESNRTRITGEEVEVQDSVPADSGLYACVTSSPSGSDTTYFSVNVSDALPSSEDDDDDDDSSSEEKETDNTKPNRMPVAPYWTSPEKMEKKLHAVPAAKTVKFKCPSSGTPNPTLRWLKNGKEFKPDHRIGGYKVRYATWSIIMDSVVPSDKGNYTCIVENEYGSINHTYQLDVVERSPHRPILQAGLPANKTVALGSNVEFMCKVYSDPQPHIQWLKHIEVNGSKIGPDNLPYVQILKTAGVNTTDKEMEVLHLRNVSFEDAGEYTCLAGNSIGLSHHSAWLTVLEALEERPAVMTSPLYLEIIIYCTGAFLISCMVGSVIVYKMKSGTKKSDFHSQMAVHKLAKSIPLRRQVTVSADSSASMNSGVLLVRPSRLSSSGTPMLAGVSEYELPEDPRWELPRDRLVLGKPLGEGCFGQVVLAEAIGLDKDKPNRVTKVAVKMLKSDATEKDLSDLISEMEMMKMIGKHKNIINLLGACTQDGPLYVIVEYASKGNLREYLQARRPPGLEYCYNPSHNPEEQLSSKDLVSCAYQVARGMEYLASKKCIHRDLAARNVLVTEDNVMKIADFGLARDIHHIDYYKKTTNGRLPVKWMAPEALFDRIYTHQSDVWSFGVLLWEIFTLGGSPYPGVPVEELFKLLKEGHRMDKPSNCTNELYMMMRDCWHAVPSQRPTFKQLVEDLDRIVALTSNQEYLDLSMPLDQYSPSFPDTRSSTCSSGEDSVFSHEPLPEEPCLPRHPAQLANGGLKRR
metric: log10 IC50 (log10 of the value in µM)
// do not treat as linear: log10 of IC50, unit µM

Solved cases below.
compound: COc1cc(OC)cc(N(CCO)c2ccc3ncc(-c4ccc(N5CCOCC5)nc4)nc3c2)c1
target_system: FGFR1 (h) (Homo sapiens, UniProt P11362)
log10 IC50: -2.41

compound: COc1cc(OC)cc(N(CCO)c2ccc3ncc(-c4ccnc(C(=O)NCCCCCN)c4)nc3c2)c1
target_system: FGFR1 (h) (Homo sapiens, UniProt P11362)
log10 IC50: -1.64

compound: COCC(CN(c1cc(OC)cc(OC)c1)c1ccc2ncc(-c3cccnc3)nc2c1)OC(C)=O (single isomer, unassigned) [Compound 52]
target_system: FGFR1 (h) (Homo sapiens, UniProt P11362)
log10 IC50: -1.06

compound: COC(=O)C1CCCN1c1cnc2ccc(N(CCO)c3cc(OC)cc(OC)c3)cc2n1 (stereo not drawn)
target_system: FGFR1 (h) (Homo sapiens, UniProt P11362)
log10 IC50: -0.97

compound: COc1cc(OC)cc(N(CCNC(C)C)c2ccc3ncc(-c4cccnc4)nc3c2)c1
target_system: FGFR1 (h) (Homo sapiens, UniProt P11362)
log10 IC50: -2.56

// next item, log10 IC50 requested
For the compound COc1cc(OC)cc(N(CCCO)c2ccc3ncc(-c4ccc(N5CCOCC5)nc4)nc3c2)c1 , the measured log10 IC50 on FGFR1 (h) (Homo sapiens, UniProt P11362) was -2.16
